Where do these numbers come from? They come from PubChem BioAssay (NCATS).

- EXPERIMENTAL_PROTOCOL: qHTS for Inhibitors of Plasmodium falciparum (DD2) proliferation (AID 504314);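 also: parasite DNA measured by SYBR Green fluorescence after red cell lysis; plate controls were DMSO vehicle for no effect and artemisinin wells for full effect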
- RECORDED_CONDITIONS: P. falciparum Dd2 in erythrocytes, SYBR Green growth, 72 h; series mostly up to 6.11 µM
Results filed as inconclusive are left out. Activity calls are given as the source filed them. Calls follow the shape of the dose curve; as a rule, active = well fitted inhibition curve with a large enough effect; inconclusive = small, poorly fitted or top-dose-only effect; inactive = flat fitted curve, though single readings scatter.
PROPERTY_MEASURED: activity, negative = inhibition

Answered examples (5):
[[record]]
compound = "CCCCCCN1C(=O)CC[C@@]23C1=NC(C(=O)OC)=C(C(=O)OC)[C@@H]2N(Cc1ccccc1)c1ccccc13"
reported_result = "inactive"

[[record]]
compound = "CC(=O)C1=C(C)N(Cc2ccccc2)C(=O)NC1c1ccco1 (configuration not stated)"
reported_result = "inactive"

[[record]]
compound = "COc1ccc2c(c1)CO[C@H]([C@H](O)CO)[C@H]2C=Cc1ccccc1"
reported_result = "inactive"

[[record]]
compound = "C=CC[C@@H]1C=C[C@H](ON=C[C@@H](N[S+](=O)([O-])c2ccc(C)cc2)[C@H](C)C=CCC(=O)OC)[C@H](CO)O1"
reported_result = "inactive"

[[record]]
compound = "Cc1cc2c(nc1C)CCCN2CC(O)CN1CCN(C)CC1 (configuration not stated)"
reported_result = "inactive"


Note to self: activity, negative = inhibition recorded for `COc1ccc([C@]23Cc4cc(C#N)ccc4[C@H](O2)c2c(c4ccc(OC)cc4oc2=O)O3)cc1` was inactive

Note to self: activity, negative = inhibition recorded for `COC(=O)[C@H](COC(C)(C)C)NC(=O)O[C@@H]1C(=O)c2ccc(OC)cc2O[C@H]1c1ccc2c(c1)OCO2` was inactive

* * *

- EXPERIMENTAL_PROTOCOL: Primary qHTS for inhibitors of nuclear receptor binding SET domain protein 2 (NSD2) in an RCH-ACV wild type WT cells (2C) (AID 1645877); also: nearly all actives have a fitted effect of over 70% in size
- RECORDED_CONDITIONS: RCH-ACV (leukaemia line) NSD2 WT (2C) viability, CellTiter-Glo, 72 h; series mostly up to 44.9 µM
Records with an inconclusive call do not appear. Calls of active or inactive are those of the source. Calls come from the whole dose curve; as a rule, active = well fitted inhibition curve with a large enough effect; inconclusive = small, poorly fitted or top-dose-only effect; inactive = no such curve, though single readings can be large or run the other way.
Log the outcome using a class from active, inactive

A selection of reference data follows.
[[record]]
smiles_string = "CN(CCO)C1CCN(c2ccc(Nc3ncc4c5ccnc(F)c5n(C5CCCC5)c4n3)nc2)CC1"
classification = "active"

[[record]]
smiles_string = "C[C@@H](c1nc(-c2ccc(C#N)cc2)cs1)[C@](O)(Cn1cncn1)c1cc(F)ccc1F"
classification = "active"


## Input Which outcome was assigned to `C=CC(=O)Nc1cccc(Nc2nc(Nc3ccccc3)ncc2C)c1` in this test?
## Output active

## Input Which outcome was assigned to `CNCc1ccc(C)c(NC(=O)c2ccc(Nc3nc(-c4ccccc4)c4ccccc4n3)cc2)c1` in this test?
## Output active

## Input Which outcome was assigned to `O=S(=O)(/N=C/c1c(O)ccc2ccccc12)c1cccs1` in this test?
## Output inactive

* * *

- EXPERIMENTAL_PROTOCOL: Stat Signaling Pathway (AID 446);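 also: ME-180 cervical cancer cells given 40 pM IL-6 alongside compound; SIE-controlled beta-lactamase reporter measured as 460/530 nm FRET emission ratio; % is scaled to controls: 0 for no effect and ±100 for the full control effect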
- RECORDED_CONDITIONS: ME-180 (cervical carcinoma) SIE beta-lactamase reporter, IL-6 stimulated, 5 h; at 17.2 µM (top of the series)
Results filed as inconclusive are left out.
PROPERTY_MEASURED: activity, negative = inhibition (%)
Number in %, nothing else.

[[record]]
smiles_string = "O=C1CC[C@H](N2C(=O)c3ccccc3C2=O)C(=O)N1"
property_measured = "activity, negative = inhibition"
reported_result = 3.42

[[record]]
smiles_string = "CCCCC[C@H](O)/C=C/[C@@H]1[C@@H](CCCCCCC(=O)O)[C@@H](O)C[C@H]1O"
property_measured = "activity, negative = inhibition"
reported_result = 2.03


Attention now shifts to the item below.
Note to self: activity, negative = inhibition recorded for `CC(=O)Nc1ccc(OC[C@@H](O)CNC(C)C)cc1` was 9.62
